assay: Biodistribution in PC-3 tumor-bearing CB17-SCID mice; assay type: in vivo; conditions: mouse, pancreas, intravenous, 100 pmol, ^68Ga-labeled; 1 h p.i.; 100 pmol; n = 4; read-out: Uptake in Pancreas
Starred links: 1 amine or outer side, 2 acyl side, 3 side chain; linkers in the order of their positions; H or OH if unused. Non-standard residues stand in square brackets, D forms with d. Residues, ends and D or L forms follow the SMILES beside them. *: point of attachment. DOTA = O=C(O)CN1CCN(CC(=O)O)CCN(CC(=O)*)CCN(CC(=O)O)CC1; Sta = CC(C)C[C@H](N)[C@@H](O)CC(=O)O; Bta = N[C@@H](Cc1csc2ccccc12)C(=O)O; X1 = O=C(CN1CCC(N[*:1])CC1)[*:2]; hSer = N[C@@H](CCO)C(=O)O
# tissue uptake at 1 h listing for each entry below

{"columns": ["molecule", "tissue uptake at 1 h"],
 "data": [
  ["CC(C)C[C@H](NC(=O)C[C@H](O)[C@H](CC(C)C)NC(=O)[C@H](Cc1c[nH]cn1)NC(=O)CNC(=O)[C@@H](NC(=O)[C@H](C)NC(=O)[C@H](Cc1c[nH]c2ccccc12)NC(=O)[C@H](CCO)NC(=O)[C@@H](Cc1ccccc1)NC(=O)CN1CCC(NC(=O)CN2CCN(CC(=O)O)CCN(CC(=O)O)CCN(CC(=O)O)CC2)CC1)C(C)C)C(N)=O [[^68Ga]Ga-[Hse^7]RM2, metal not drawn] ({DOTA}-[X1][dF][hSer]WAVGH[Sta]L-NH2)", "< 8 %ID/g"]
]}

Measured tissue uptake at 1 h of CC(C)C[C@H](NC(=O)C[C@H](O)[C@H](CC(C)C)NC(=O)[C@H](Cc1c[nH]cn1)NC(=O)CNC(=O)[C@@H](NC(=O)[C@H](C)NC(=O)[C@H](Cc1csc2ccccc12)NC(=O)[C@H](CCC(N)=O)NC(=O)[C@@H](Cc1ccccc1)NC(=O)CN1CCC(NC(=O)CN2CCN(CC(=O)O)CCN(CC(=O)O)CCN(CC(=O)O)CC2)CC1)C(C)C)C(N)=O [[^68Ga]Ga-[Bta^8]RM2, metal not drawn] ({DOTA}-[X1][dF]Q[Bta]AVGH[Sta]L-NH2) : < 8 %ID/g

----------
experiment: Biodistribution in PC-3 tumor-bearing CB17-SCID mice; format: in vivo; conditions: mouse, intestine, intravenous, 100 pmol, ^177Lu-labeled; 24 h p.i.; 100 pmol; n = 4; read-out: Uptake in Intestine
Starred links: 1 amine or outer side, 2 acyl side, 3 side chain; linkers in the order of their positions; H or OH if unused. Non-standard residues stand in square brackets, D forms with d. Residues, ends and D or L forms follow the SMILES beside them. *: point of attachment. DOTA = O=C(O)CN1CCN(CC(=O)O)CCN(CC(=O)*)CCN(CC(=O)O)CC1; Sta = CC(C)C[C@H](N)[C@@H](O)CC(=O)O; Bta = N[C@@H](Cc1csc2ccccc12)C(=O)O; X1 = O=C(CN1CCC(N[*:1])CC1)[*:2]; hSer = N[C@@H](CCO)C(=O)O
# tissue uptake at 24 h listing for each entry below
Supply the numeric figure in %ID/g, leaving out any unit text.

{"columns": ["compound", "meas.value"],
 "data": [
  ["CC(C)C[C@H](NC(=O)C[C@H](O)[C@H](CC(C)C)NC(=O)[C@H](Cc1c[nH]cn1)NC(=O)CNC(=O)[C@@H](NC(=O)[C@H](C)NC(=O)[C@H](Cc1csc2ccccc12)NC(=O)[C@H](CCC(N)=O)NC(=O)[C@@H](Cc1ccccc1)NC(=O)CN1CCC(NC(=O)CN2CCN(CC(=O)O)CCN(CC(=O)O)CCN(CC(=O)O)CC2)CC1)C(C)C)C(N)=O [[^177Lu]Lu-[Bta^8]RM2, metal not drawn] ({DOTA}-[X1][dF]Q[Bta]AVGH[Sta]L-NH2)", 0.28]
]}

Measured tissue uptake at 24 h of CC(C)C[C@H](NC(=O)C[C@H](O)[C@H](CC(C)C)NC(=O)[C@H](Cc1c[nH]cn1)NC(=O)CNC(=O)[C@@H](NC(=O)[C@H](C)NC(=O)[C@H](Cc1c[nH]c2ccccc12)NC(=O)[C@H](CCO)NC(=O)[C@@H](Cc1ccccc1)NC(=O)CN1CCC(NC(=O)CN2CCN(CC(=O)O)CCN(CC(=O)O)CCN(CC(=O)O)CC2)CC1)C(C)C)C(N)=O [[^177Lu]Lu-[Hse^7]RM2, metal not drawn] ({DOTA}-[X1][dF][hSer]WAVGH[Sta]L-NH2) : 0.38
